Hey, just so you know, these numbers are from ChEMBL document CHEMBL4616701.

# TARGET_OR_TEST_SYSTEM: Histone-lysine N-methyltransferase EZH2 (Homo sapiens, UniProt Q15910)
# Sequence (Q15910 whole entry): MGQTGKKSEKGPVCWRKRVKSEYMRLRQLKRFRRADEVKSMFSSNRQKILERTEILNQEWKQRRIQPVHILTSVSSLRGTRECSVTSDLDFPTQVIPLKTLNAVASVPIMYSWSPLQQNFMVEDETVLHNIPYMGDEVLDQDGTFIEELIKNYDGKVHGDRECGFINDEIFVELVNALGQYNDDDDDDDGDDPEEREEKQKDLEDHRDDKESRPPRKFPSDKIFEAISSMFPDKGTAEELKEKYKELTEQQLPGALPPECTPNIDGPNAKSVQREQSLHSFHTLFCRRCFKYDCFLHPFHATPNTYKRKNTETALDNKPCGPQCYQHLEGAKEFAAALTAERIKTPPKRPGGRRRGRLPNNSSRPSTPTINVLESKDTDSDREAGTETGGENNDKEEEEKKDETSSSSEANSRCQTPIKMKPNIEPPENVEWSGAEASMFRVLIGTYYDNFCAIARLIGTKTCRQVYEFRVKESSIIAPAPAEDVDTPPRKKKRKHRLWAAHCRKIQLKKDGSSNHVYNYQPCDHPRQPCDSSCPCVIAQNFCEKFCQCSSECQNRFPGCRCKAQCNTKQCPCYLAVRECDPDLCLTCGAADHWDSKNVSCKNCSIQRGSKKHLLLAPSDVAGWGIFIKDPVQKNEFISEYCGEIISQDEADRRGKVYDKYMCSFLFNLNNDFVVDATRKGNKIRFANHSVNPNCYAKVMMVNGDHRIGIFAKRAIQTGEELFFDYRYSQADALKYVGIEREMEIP
# ASSAY: Inhibition of EZH2 in human HeLa cells assessed as inhibition of trimethylation of H3K27 after 72 hrs by AlphaLISA assay
# Type: cell-based
MEASURED_PARAMETER: log10(EC50) (log10 of the value in nM)

>  <TEST_SMILES>
CSc1cc(C)[nH]c(=O)c1CNC(=O)c1c(C)n([C@H](C)[C@H]2CC[C@H](N3CC(OC4CC4)C3)CC2)c2ccccc12

>  <REPORTED_MEASUREMENT>
0.54

$$$$
>  <TEST_SMILES>
CSc1cc(C)[nH]c(=O)c1CNC(=O)c1c(C)n([C@H](C)[C@H]2OC[C@H](N(C)C)CO2)c2ccccc12

>  <REPORTED_MEASUREMENT>
0.38

$$$$
>  <TEST_SMILES>
Cc1cc(SC2CCC2)c(CNC(=O)c2c(C)n([C@H](C)C3CCN(CC(F)(F)F)CC3)c3ccccc23)c(=O)[nH]1

>  <REPORTED_MEASUREMENT>
1.69

$$$$
>  <TEST_SMILES>
CSc1cc(C)[nH]c(=O)c1CNC(=O)c1c(C)n([C@H](C)[C@H]2CC[C@H](N3CC(OC(F)F)C3)CC2)c2ccccc12

>  <REPORTED_MEASUREMENT>
-0.15

$$$$
>  <TEST_SMILES>
CSc1cc(C)[nH]c(=O)c1CNC(=O)c1c(C)n([C@H](C)[C@H]2CC[C@@H](N3CC(F)(F)C3)CC2)c2ccccc12

>  <REPORTED_MEASUREMENT>
0.77

$$$$
>  <TEST_SMILES>
COC1CN([C@H]2CC[C@H]([C@@H](C)n3c(C)c(C(=O)NCc4c(SC)cc(C)[nH]c4=O)c4ccccc43)CC2)C1

>  <REPORTED_MEASUREMENT>
0.30

$$$$
>  <TEST_SMILES>
CSc1cc(C)[nH]c(=O)c1CNC(=O)c1c(C)n([C@H](C)[C@H]2CC[C@H](N3CC(OC4CC4)C3)CC2)c2ncc(Cl)cc12

>  <REPORTED_MEASUREMENT>
0.54

$$$$
>  <TEST_SMILES>
CSc1cc(C)[nH]c(=O)c1CNC(=O)c1c(C)n([C@H](C)[C@H]2CC[C@H](N3CC(OC4CC4)C3)CC2)c2c(F)cccc12

>  <REPORTED_MEASUREMENT>
0.53

$$$$
>  <TEST_SMILES>
Cc1cc(Sc2ccccc2)c(CNC(=O)c2c(C)n([C@H](C)C3CCN(CC(F)(F)F)CC3)c3ccccc23)c(=O)[nH]1

>  <REPORTED_MEASUREMENT>
2.26

$$$$
>  <TEST_SMILES>
CSc1cc(C)[nH]c(=O)c1CNC(=O)c1c(C)n([C@H](C)C2CCN(CC(C)(C)O)CC2)c2ccccc12

>  <REPORTED_MEASUREMENT>
1.41

$$$$
>  <TEST_SMILES>
CSc1cc(C)[nH]c(=O)c1CNC(=O)c1c(C)n([C@H](C)[C@H]2CC[C@H](N3CC(OC4CC4)C3)CC2)c2ncncc12

>  <REPORTED_MEASUREMENT>
0.80

$$$$
